Target: human IL-17AA (Homo sapiens, UniProt Q16552)
Sequence (Q16552 24-155): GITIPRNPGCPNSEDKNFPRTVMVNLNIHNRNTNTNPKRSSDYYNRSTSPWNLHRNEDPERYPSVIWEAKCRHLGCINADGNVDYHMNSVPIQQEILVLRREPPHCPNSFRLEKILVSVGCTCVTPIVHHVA
Test: IL-8 release assay in human epithelial keratinocytes adult (HEKa)
Settings: HEKa cells, 3 ng/mL HEK-human IL-17AA + 10 ng/mL human TNFalpha; read-out: Rel EC50 IL-8 release assay
ASSAY ENDPOINT: EC50

Would you please look over these solved cases?
CCCn1nccc1C(=O)N[C@H](C(=O)Nc1ccc(-c2c(CC)n[nH]c2CC)cc1)C(C1CC1)C1CC1 = < 100 nM
Cc1n[nH]c(C(C)O)c1-c1ccc(NC(=O)[C@@H](NC(=O)OC(C)(C)C)C2CCCCC2)cc1 (some centres unmarked) = > 1000 nM
Cn1cnnc1-c1ccc(NC(=O)[C@@H](NC(=O)C2(F)CC2)C(c2ccccc2)c2ccccc2)cc1 = > 1000 nM

For the compound Cc1n[nH]c(C)c1-c1ccc(NC(=O)[C@@H](NC(=O)C(C)(C)C)C(C2CC2)C2CC2)cc1 , give its reported EC50.
> 1000 nM

For the compound Cc1n[nH]c(C)c1-c1ccc(NC(=O)[C@@H](NC(=O)c2ccnn2C(C)CO)C(C)C(C)(C)C)cc1 (single isomer, unassigned) [Example 175] , give its reported EC50.
100 to 1000 nM

For the compound Cc1n[nH]c(C)c1-c1ccc(NC(=O)[C@@H](NC(=O)c2ccnn2C)C(c2ccccc2)c2ccccc2)cc1O , give its reported EC50.
100 to 1000 nM

For the compound Cc1ncn(C)c1-c1ccc(NC(=O)[C@@H](NC(=O)c2ccnn2C(C)C)C(C2CC2)C2CC2)cc1 , give its reported EC50.
100 to 1000 nM

For the compound Cc1n[nH]c(C)c1-c1ccc(NC(=O)[C@H](CC(C)C)NC(=O)c2ccnn2C)cc1 , give its reported EC50.
> 1000 nM
